meta.source: the supplement of paper PMC7877785

Assay: self-splicing fitness, log relative to wild type (ln ratio); higher = more splicing; Tetrahymena group I intron in knt gene, E. coli kanamycin selection, DiMSum; sequences stand for … in CUCUCU…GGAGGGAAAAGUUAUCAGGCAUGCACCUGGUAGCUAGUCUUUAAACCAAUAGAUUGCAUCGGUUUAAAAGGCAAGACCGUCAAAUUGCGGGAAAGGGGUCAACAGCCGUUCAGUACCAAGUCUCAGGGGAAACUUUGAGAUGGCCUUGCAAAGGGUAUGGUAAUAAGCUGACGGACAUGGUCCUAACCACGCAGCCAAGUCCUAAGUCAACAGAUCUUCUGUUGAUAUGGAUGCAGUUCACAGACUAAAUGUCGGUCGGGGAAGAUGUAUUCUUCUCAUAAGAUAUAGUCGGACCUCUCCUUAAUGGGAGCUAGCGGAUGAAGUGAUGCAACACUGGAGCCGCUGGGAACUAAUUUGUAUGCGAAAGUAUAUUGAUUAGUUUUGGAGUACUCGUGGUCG;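 note: selection with 25 µg/mL kanamycin versus none on LB agar overnight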
Details: 37 °C
quantity_measured: self-splicing fitness (ln)
Respond numerically, and do not add a unit to the figure.

{"columns": ["ordered_residues", "self-splicing fitness (ln)"],
 "data": [
  ["AGGGAGCAAUAUUACGUAUG", -2.37],
  ["GCAUAGCAAUAUUACGCUUC", -2.69],
  ["ACAGAGCAAUAUUACGUGGG", -2.4],
  ["UACAAGCAAUAUUACGACAG", -0.241],
  ["AUGCAGCAAUAUUACGCACU", 0.309],
  ["UGGGAGCAAUAUUACGAAUU", -2.63],
  ["AGCCAGCAAUAUUACGGUCG", -0.328],
  ["CUUCAGCAAUAUUACGGUUG", -0.455],
  ["UAAGAGCAAUAUUACGGUAC", -2.25],
  ["ACCCAGCAAUAUUACGCGGA", 0.218]
]}

(Q) Given the sequence CAGGAGCAAUAUUACGUCCG , write its reported self-splicing fitness (ln).
(A) 0.304

(Q) Given the sequence UUGGAGCAAUAUUACGAUAA , write its reported self-splicing fitness (ln).
(A) 0.881

(Q) Given the sequence CAUGAGCAAUAUUACGUUUU , write its reported self-splicing fitness (ln).
(A) -2.86

(Q) Given the sequence GGGAAGCAAUAUUACGAUUG , write its reported self-splicing fitness (ln).
(A) -3.25

(Q) Given the sequence GGUCAGCAAUAUUACGUUGC , write its reported self-splicing fitness (ln).
(A) -0.999

(Q) Given the sequence GGGCAGCAAUAUUACGAAAC , write its reported self-splicing fitness (ln).
(A) -0.594
